Tested on: HEK293 cells
Test: Cytotoxicity on HEK293 cells (MTT)
Format: cell-based, human
Conditions: Homo sapiens, HEK293, 100μM, after treatment; read-out: IR (inhibitory rate) HEK293
Entries annotated with measured inhibition at 100 µM

Here's what some known entries look like.
MOLECULE	inhibition at 100 µM
COc1ccc2c(c1)C(CCNC(=O)c1ccc(F)cc1)=NCC2	43.8%
COc1ccc2c(c1)C(CCNC(=O)c1ccc(C(F)(F)F)cc1)=NCC2	38.4%
COc1ccc2c(c1)C(CCNC(=O)Nc1c(C)cc(C#N)cc1C)=NCC2.O=C(O)C(=O)O	< 20%
COc1ccc(C(=O)NCCC2=NCCc3ccc(OC)cc32)c(OC)c1	56.1%
COc1ccc2c(c1)C(CCNC(=O)Nc1ccc(C(F)(F)F)cc1)=NCC2.O=C(O)C(=O)O	23.2%
COc1ccc2c(c1)C(CCNC(=O)Nc1ccc(Cl)c(C(F)(F)F)c1)=NCC2	31.6%

Okay, now this compound:
Look up inhibition at 100 µM for this compound: COc1ccc2c(c1)C(CCNC(=O)Nc1cc(Cl)c(Cl)c(Cl)c1)=NCC2.O=C(O)C(=O)O 40.1%

----------
System: HEK293 cells
Assay: Cytotoxicity on HEK293 cells (MTT)
Assay type: cell-based, human
Details: Homo sapiens, HEK293, 100μM, after treatment; read-out: IR (inhibitory rate) HEK293
REPORTED PROPERTY: inhibition at 100 µM

MOLECULE	inhibition at 100 µM
COc1ccc2c(c1)C(CCNC(=O)c1cccc(C)c1)=NCC2.O=C(O)C(=O)O	22.2%
COc1ccc2c(c1)C(CCNC(=O)c1ccc(Cl)cc1)=NCC2	60%
COc1ccc2c(c1)C(CCNC(=O)Nc1cccc3ccccc13)=NCC2.O=C(O)C(=O)O	< 20%
COc1ccc(C(=O)NCCC2=NCCc3ccc(OC)cc32)cc1	34.1%
COc1ccc2c(c1)C(CCNC(=O)Nc1cccc(Cl)c1)=NCC2.O=C(O)C(=O)O	37.9%

Look up inhibition at 100 µM for this molecule: COc1ccc2c(c1)C(CCNC(=O)c1ccc(Br)nc1)=NCC2.O=C(O)C(=O)O 56.1%

Look up inhibition at 100 µM for this molecule: COc1ccc2c(c1)C(CCNC(=O)c1ccccc1)=NCC2.O=C(O)C(=O)O 27.6%

Look up inhibition at 100 µM for this molecule: COc1ccc2c(c1)C(CCNC(=O)c1ccc(C#N)cc1)=NCC2.O=C(O)C(=O)O 55.9%

Look up inhibition at 100 µM for this molecule: COc1ccc2c(c1)C(CCNC(=O)c1cc(Br)cnc1Cl)=NCC2.O=C(O)C(=O)O 49.1%

----------
Entries annotated with measured PR (protection rate)
Tested on: corticosterone-injured PC12 cells
Assay: Protective effects on corticosterone-injured PC12 cells (MTT)
Format: cell-based, rat
Conditions: 5 μM, 24 h after treatment, 200 μM corticosterone

Look up PR (protection rate) for this molecule: CCC(=O)NCCC1=NCCc2ccc(OC)cc21.O=C(O)C(=O)O [6a-2] 3.1%

----------
Entries annotated with measured inhibition at 100 µM
Test system: HEK293 cells
Assay: Cytotoxicity on HEK293 cells (MTT)
Assay type: cell-based, human
Details: Homo sapiens, HEK293, 100μM, after treatment; read-out: IR (inhibitory rate) HEK293
Entry rule: numbers only, all in %.

Lab note: need inhibition at 100 µM for COc1ccc2c(c1)C(CCNC(=O)Nc1ccc(C#N)c(F)c1)=NCC2.O=C(O)C(=O)O [6b-7] on HEK293 cells, anyone have it? 27.2

----------
Test system: corticosterone-injured PC12 cells
Test: Protective effects on corticosterone-injured PC12 cells (MTT)
Format: cell-based, rat
Conditions: 5 μM, 24 h after treatment, 200 μM corticosterone
REPORTED PROPERTY: PR (protection rate) (%)
Entry rule: numbers only, all in %.

Here's what some known entries look like.
MOLECULE	REPORTED PROPERTY	NUMBER
COc1ccc2c(c1)C(CCNC(C)=O)=NCC2.O=C(O)C(=O)O [6a-1]	PR (protection rate)	42.1
COc1ccc2c(c1)C(CCNC(=O)c1ccco1)=NCC2 [6a-9]	PR (protection rate)	7.9

Okay, now this molecule:
Look up PR (protection rate) for this molecule: COc1ccc2cccc(CCNC(C)=O)c2c1 [Agomelatine, reference compound] 17.6

----------
Test system: HEK293 cells
Assay: Cytotoxicity on HEK293 cells (MTT)
Type: cell-based, human
Conditions: Homo sapiens, HEK293, 100μM, after treatment; read-out: IR (inhibitory rate) HEK293
Parameter class (string): assigned from measured inhibition at 100 µM. Ranges: class 1 (below 40%), class 2 (40% to below 50%), class 3 (50% or more)

See these solved cases before continuing.
MOLECULE	ANSWER LABEL
COc1ccc2c(c1)C(CCNC(=O)c1cc(Cl)ccc1Br)=NCC2.O=C(O)C(=O)O	class 3
COc1ccc2c(c1)C(CCNC(=O)c1ccccn1)=NCC2.O=C(O)C(=O)O	class 3
COc1ccc2c(c1)C(CCNC(=O)Nc1ccc(Cl)c(Cl)c1)=NCC2.O=C(O)C(=O)O	class 3

Field: class (inhibition at 100 µM) — entry: COc1ccc2c(c1)C(CCNC(=O)c1ccc(C(C)=O)cc1)=NCC2 class 1

Field: class (inhibition at 100 µM) — entry: COc1ccc2c(c1)C(CCNC(=O)Nc1nccs1)=NCC2.O=C(O)C(=O)O class 1

Field: class (inhibition at 100 µM) — entry: COc1ccc2c(c1)C(CCNC(=O)NC(C)C)=NCC2 class 1

Field: class (inhibition at 100 µM) — entry: COc1ccc2c(c1)C(CCNC(=O)Nc1ccc(F)c(Cl)c1)=NCC2.O=C(O)C(=O)O class 1

Field: class (inhibition at 100 µM) — entry: CCC(=O)NCCC1=NCCc2ccc(OC)cc21.O=C(O)C(=O)O class 1

Field: class (inhibition at 100 µM) — entry: COc1ccc2c(c1)C(CCNC(=O)Nc1ncccc1Br)=NCC2.O=C(O)C(=O)O class 2

Field: class (inhibition at 100 µM) — entry: COc1ccc2c(c1)C(CCNC(=O)Nc1cccc([N+](=O)[O-])c1)=NCC2.O=C(O)C(=O)O class 2

Field: class (inhibition at 100 µM) — entry: COc1ccc2c(c1)C(CCNC(=O)c1ccc(C(C)(C)C)cc1)=NCC2.O=C(O)C(=O)O class 3

Field: class (inhibition at 100 µM) — entry: COc1ccc2c(c1)C(CCNC(=O)Nc1ccc(Br)cc1)=NCC2 class 2

Field: class (inhibition at 100 µM) — entry: COc1ccc2c(c1)C(CCNC(=O)c1ccc(C)cc1)=NCC2.O=C(O)C(=O)O class 3

----------
Entries annotated with measured inhibition at 100 µM
System: HEK293 cells
Experiment: Cytotoxicity on HEK293 cells (MTT)
Type: cell-based, human
Conditions: Homo sapiens, HEK293, 100μM, after treatment; read-out: IR (inhibitory rate) HEK293
Entry rule: numbers only, all in %.

Here's what some known entries look like.
COMPOUND	REPORTED PROPERTY	NUMBER
COc1ccc2c(c1)C(CCNC(=O)c1cccnc1Cl)=NCC2.O=C(O)C(=O)O [6a-21]	inhibition at 100 µM	49.8
COc1ccc2c(c1)C(CCNC(=O)c1ccc3ccccc3n1)=NCC2.O=C(O)C(=O)O [6a-26]	inhibition at 100 µM	48.6
COc1ccc2c(c1)C(CCNC(=O)Nc1ccc(Br)cn1)=NCC2.O=C(O)C(=O)O [6b-12]	inhibition at 100 µM	49.4

Look up inhibition at 100 µM for this compound: COc1ccc2c(c1)C(CCNC(=O)c1cccnc1)=NCC2.O=C(O)C(=O)O [6a-23] 57.8

----------
Entries annotated with measured inhibition at 100 µM
System: HEK293 cells
Test: Cytotoxicity on HEK293 cells (MTT)
Assay type: cell-based, human
Conditions: Homo sapiens, HEK293, 100μM, after treatment; read-out: IR (inhibitory rate) HEK293
Entry rule: numbers only, all in %.

Here's what some known entries look like.
MOLECULE	inhibition at 100 µM / %
COc1ccc2c(c1)C(CCNC(=O)Cc1cc3ccccc3[nH]1)=NCC2.O=C(O)C(=O)O	55.8
COc1ccc2c(c1)C(CCNC(=O)Nc1ccccc1C(F)(F)F)=NCC2.O=C(O)C(=O)O	29.2
COc1ccc2c(c1)C(CCNC(=O)C(F)(F)F)=NCC2	60.1
COc1ccc2c(c1)C(CCNC(=O)Nc1ccccc1[N+](=O)[O-])=NCC2	33.5

Okay, now this molecule:
Look up inhibition at 100 µM for this molecule: COc1ccc2c(c1)C(CCNC(=O)C1CC1)=NCC2 46.2
